Value source: ChEMBL document CHEMBL1143572

Target: Metabotropic glutamate receptor 4 (Rattus norvegicus, UniProt P31423)
Sequence (P31423 whole entry): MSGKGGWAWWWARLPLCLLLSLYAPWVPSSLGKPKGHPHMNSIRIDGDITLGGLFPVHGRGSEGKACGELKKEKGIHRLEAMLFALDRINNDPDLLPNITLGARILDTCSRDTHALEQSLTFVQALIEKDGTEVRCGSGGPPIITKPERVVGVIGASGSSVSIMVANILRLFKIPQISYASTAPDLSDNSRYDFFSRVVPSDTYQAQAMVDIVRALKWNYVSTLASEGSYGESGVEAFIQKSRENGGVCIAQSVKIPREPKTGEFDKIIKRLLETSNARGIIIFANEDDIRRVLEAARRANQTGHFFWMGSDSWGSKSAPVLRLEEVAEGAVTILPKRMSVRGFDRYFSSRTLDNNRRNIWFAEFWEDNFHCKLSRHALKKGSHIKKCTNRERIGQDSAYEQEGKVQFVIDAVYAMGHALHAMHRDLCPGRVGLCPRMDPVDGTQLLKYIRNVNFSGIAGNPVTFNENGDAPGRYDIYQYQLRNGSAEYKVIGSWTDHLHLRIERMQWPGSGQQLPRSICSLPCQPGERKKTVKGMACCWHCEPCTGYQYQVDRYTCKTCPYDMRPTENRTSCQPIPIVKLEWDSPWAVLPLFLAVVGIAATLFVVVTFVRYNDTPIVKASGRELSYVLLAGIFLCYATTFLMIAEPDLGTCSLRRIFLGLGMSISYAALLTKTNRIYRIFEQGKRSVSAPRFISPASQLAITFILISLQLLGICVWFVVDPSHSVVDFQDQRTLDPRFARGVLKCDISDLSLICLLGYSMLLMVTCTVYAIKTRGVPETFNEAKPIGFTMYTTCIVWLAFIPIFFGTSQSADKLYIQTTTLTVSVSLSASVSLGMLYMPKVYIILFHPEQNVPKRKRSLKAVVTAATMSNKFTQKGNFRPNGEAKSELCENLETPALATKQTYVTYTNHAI
Assay: Stimulation od [3H]phosphatidylinositol accumulation by rat Metabotropic glutamate receptor 4 co-expressed with Gqi9 protein in HEK 293 cells
Format: functional, cell-based, HEK293
pEC50: −log10 of the molar value.
Parameter Measured: pEC50

Task item: Param item = `N[C@H](C(=O)O)C12CC(C(=O)O)(C1)C2` ; retrieve measured pEC50.
Reply: < 3.00

###

Biological target: Metabotropic glutamate receptor 4 (Rattus norvegicus, UniProt P31423)
Assay: Effective concentration against Metabotropic glutamate receptor 4
Parameter Measured: EC50 (µM)
Reply with just the number (in µM).

Task item: Hi! What's the reported EC50 for `N[C@@H](CCP(=O)(O)O)C(=O)O` on Metabotropic glutamate receptor 4 (Rattus norvegicus, UniProt P31423)?
Reply: 0.2
